target: T1, Mdm2 (1-125) (human, UniProt Q00987 1-125); assay: apparent Kd, competitive fluorescence polarization; displacement of FAM-…-NH2 from Mdm2 (1-125)
T1 construct: range 1-125; also called Hdm2
T1 sequence (Q00987 1-125 limits assumed): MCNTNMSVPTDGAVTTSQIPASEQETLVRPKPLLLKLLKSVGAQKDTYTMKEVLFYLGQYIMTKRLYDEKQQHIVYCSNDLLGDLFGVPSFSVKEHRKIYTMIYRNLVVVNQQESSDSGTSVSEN
Bridges are numbered along the chain shown (N, C = ends). [ ]: non-standard residue; d: D form. R8 = C=CCCCCCC[C@@](C)(N)C(=O)O; S5 = C=CCCC[C@](C)(N)C(=O)O
quantity-kind: pKd
Would you please state pKd, meaning minus log10 of the concentration in mol/L, as a bare number?

Ac-TSF[R8]EYWNLL[S5]-NH2 (staple 4-11; SMILES CC(=O)N[C@H](C(=O)N[C@@H](CO)C(=O)N[C@@H](Cc1ccccc1)C(=O)N[C@]1(C)CCCCCCC=CCCC[C@@](C)(C(N)=O)NC(=O)[C@H](CC(C)C)NC(=O)[C@H](CC(C)C)NC(=O)[C@H](CC(N)=O)NC(=O)[C@H](Cc2c[nH]c3ccccc23)NC(=O)[C@H](Cc2ccc(O)cc2)NC(=O)[C@H](CCC(=O)O)NC1=O)[C@@H](C)O, Stapled derivative of MTide-01; also called Ac-TSFXEYWNLLX-NH2) [sMTide-01] :: 7.06

Which pKd reading was recorded for the binder Ac-TSFAEYWNLLS-NH2 (Linear phage-derived peptide) [MTide-01] ?
7.33

meta.source: patent US20150246946A1
